Entry source: patent US20250099482A1

Target: GST-Tip60 protein (Homo sapiens, UniProt Q92993)
Sequence (Q92993 whole entry): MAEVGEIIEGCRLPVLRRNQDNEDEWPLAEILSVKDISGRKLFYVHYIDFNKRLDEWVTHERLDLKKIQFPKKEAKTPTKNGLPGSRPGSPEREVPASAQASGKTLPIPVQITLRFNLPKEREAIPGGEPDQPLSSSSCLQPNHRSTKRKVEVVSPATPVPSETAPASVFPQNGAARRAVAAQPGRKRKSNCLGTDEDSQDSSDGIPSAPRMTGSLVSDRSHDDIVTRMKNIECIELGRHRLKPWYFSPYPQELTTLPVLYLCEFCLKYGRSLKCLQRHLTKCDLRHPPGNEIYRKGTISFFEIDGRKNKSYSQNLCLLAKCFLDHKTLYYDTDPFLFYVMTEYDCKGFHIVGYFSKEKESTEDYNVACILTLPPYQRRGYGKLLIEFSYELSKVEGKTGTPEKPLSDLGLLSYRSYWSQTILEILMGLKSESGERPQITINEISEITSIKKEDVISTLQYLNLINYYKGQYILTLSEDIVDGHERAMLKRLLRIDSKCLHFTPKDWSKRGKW
Test: In vitro surface plasma resonance (SPR) Tip60-compound binding
Conditions: SPR, 25° C.; read-out: KD (dissociation constant)
MEASURED PARAMETER: pKd
Numbers only, as −log10 of the molar value.

// query pKd value for entry CCOc1ccccc1C(=O)Nc1ccc(Cl)c(C(F)(F)F)c1 [CTB]
4.54
